Tested on: Staphylococcus aureus SA1199B
Assay type: cell-based

- Compound: "CNC(CC(C)C)C(=O)NC1C(=O)NC(CC(N)=O)C(=O)NC2C(=O)NC3C(=O)NC(C(=O)NC(C(=O)O)c4cc(O)cc(O)c4-c4cc3ccc4O)C(OC3CC(C)(N)C(O)C(C)O3)c3ccc(c(Cl)c3)Oc3cc2cc(c3OC2OC(CO)C(O)C(O)C2OC2CC(C)(NCCCCCCCCCCCCc3ccccc3)C(O)C(C)O2)Oc2ccc(cc2Cl)C1O (stereo not drawn)"
  Unit abbrev: "µg/mL"
  MIC: 8
- Compound: "CNC(CC(C)C)C(=O)NC1C(=O)NC(CC(N)=O)C(=O)NC2C(=O)NC3C(=O)NC(C(=O)NC(C(=O)O)c4cc(O)cc(O)c4-c4cc3ccc4O)C(OC3CC(C)(N)C(O)C(C)O3)c3ccc(c(Cl)c3)Oc3cc2cc(c3OC2OC(CO)C(O)C(O)C2OC2CC(C)(NCC3CCC(Cc4ccccc4)CC3)C(O)C(C)O2)Oc2ccc(cc2Cl)C1O (stereo not drawn)"
  Unit abbrev: "µg/mL"
  MIC: 1
- Compound: "CC(C)CC(C(=O)NC1C(=O)NC(CC(N)=O)C(=O)NC2C(=O)NC3C(=O)NC(C(=O)NC(C(=O)O)c4cc(O)cc(O)c4-c4cc3ccc4O)C(OC3CC(C)(N)C(O)C(C)O3)c3ccc(c(Cl)c3)Oc3cc2cc(c3OC2OC(CO)C(O)C(O)C2OC2CC(C)(NCc3ccc4c(c3)OCO4)C(O)C(C)O2)Oc2ccc(cc2Cl)C1O)N(C)Cc1ccc2c(c1)OCO2 (stereo not drawn)"
  Unit abbrev: "µg/mL"
  MIC: 0.5
- Compound: "CNC(CC(C)C)C(=O)NC1C(=O)NC(CC(N)=O)C(=O)NC2C(=O)NC3C(=O)NC(C(=O)NC(C(=O)O)c4cc(O)cc(O)c4-c4cc3ccc4O)C(OC3CC(C)(N)C(O)C(C)O3)c3ccc(c(Cl)c3)Oc3cc2cc(c3OC2OC(CO)C(O)C(O)C2OC2CC(C)(NCc3cccc(Oc4cccc(C(F)(F)F)c4)c3)C(O)C(C)O2)Oc2ccc(cc2Cl)C1O (stereo not drawn) [Compound 203]"
  Unit abbrev: "µg/mL"
  MIC: 1
- Compound: "CC(C)CC(C(=O)NC1C(=O)NC(CC(N)=O)C(=O)NC2C(=O)NC3C(=O)NC(C(=O)NC(C(=O)O)c4cc(O)cc(O)c4-c4cc3ccc4O)C(OC3CC(C)(N)C(O)C(C)O3)c3ccc(c(Cl)c3)Oc3cc2cc(c3OC2OC(CO)C(O)C(O)C2OC2CC(C)(NCc3ccc4c(c3)CCCC4)C(O)C(C)O2)Oc2ccc(cc2Cl)C1O)N(C)Cc1ccc2c(c1)CCCC2 (stereo not drawn)"
  Unit abbrev: "µg/mL"
  MIC: 0.25
- Compound: "CNC(CC(C)C)C(=O)NC1C(=O)NC(CC(N)=O)C(=O)NC2C(=O)NC3C(=O)NC(C(=O)NC(C(=O)O)c4cc(O)cc(O)c4-c4cc3ccc4O)C(OC3CC(C)(N)C(O)C(C)O3)c3ccc(c(Cl)c3)Oc3cc2cc(c3OC2OC(CO)C(O)C(O)C2OC2CC(C)(NCCc3cccc(OCc4ccccc4)c3)C(O)C(C)O2)Oc2ccc(cc2Cl)C1O (stereo not drawn)"
  Unit abbrev: "µg/mL"
  MIC: 2
